# targetDesc: UniProtKB O00329
# Sequence (O00329 whole entry): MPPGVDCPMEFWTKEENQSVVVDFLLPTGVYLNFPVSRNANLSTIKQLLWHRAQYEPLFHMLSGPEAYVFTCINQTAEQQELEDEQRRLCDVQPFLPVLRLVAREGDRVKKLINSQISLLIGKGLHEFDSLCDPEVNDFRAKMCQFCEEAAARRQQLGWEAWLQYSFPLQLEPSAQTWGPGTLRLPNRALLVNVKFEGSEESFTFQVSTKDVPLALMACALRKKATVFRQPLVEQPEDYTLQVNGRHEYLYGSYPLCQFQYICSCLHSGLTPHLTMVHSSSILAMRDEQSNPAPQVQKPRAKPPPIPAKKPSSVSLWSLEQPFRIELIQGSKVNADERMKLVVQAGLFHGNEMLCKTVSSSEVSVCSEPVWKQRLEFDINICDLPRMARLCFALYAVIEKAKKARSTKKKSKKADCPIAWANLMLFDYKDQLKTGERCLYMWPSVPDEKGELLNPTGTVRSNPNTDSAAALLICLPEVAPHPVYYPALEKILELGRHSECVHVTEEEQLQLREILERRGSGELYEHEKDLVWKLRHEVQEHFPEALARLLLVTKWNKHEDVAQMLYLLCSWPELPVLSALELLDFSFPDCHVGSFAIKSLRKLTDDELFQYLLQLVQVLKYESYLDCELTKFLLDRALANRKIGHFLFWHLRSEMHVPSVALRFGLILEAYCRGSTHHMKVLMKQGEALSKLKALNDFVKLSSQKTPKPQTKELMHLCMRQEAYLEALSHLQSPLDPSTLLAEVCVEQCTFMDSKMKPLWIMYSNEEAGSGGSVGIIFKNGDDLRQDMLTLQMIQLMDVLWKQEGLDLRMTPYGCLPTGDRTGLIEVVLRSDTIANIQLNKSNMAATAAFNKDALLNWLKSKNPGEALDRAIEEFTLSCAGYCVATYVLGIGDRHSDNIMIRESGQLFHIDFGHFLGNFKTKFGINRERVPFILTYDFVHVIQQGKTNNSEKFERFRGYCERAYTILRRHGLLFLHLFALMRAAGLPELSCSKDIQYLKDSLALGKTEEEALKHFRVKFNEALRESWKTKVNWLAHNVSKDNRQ
# Sequence (P27986 whole entry partner): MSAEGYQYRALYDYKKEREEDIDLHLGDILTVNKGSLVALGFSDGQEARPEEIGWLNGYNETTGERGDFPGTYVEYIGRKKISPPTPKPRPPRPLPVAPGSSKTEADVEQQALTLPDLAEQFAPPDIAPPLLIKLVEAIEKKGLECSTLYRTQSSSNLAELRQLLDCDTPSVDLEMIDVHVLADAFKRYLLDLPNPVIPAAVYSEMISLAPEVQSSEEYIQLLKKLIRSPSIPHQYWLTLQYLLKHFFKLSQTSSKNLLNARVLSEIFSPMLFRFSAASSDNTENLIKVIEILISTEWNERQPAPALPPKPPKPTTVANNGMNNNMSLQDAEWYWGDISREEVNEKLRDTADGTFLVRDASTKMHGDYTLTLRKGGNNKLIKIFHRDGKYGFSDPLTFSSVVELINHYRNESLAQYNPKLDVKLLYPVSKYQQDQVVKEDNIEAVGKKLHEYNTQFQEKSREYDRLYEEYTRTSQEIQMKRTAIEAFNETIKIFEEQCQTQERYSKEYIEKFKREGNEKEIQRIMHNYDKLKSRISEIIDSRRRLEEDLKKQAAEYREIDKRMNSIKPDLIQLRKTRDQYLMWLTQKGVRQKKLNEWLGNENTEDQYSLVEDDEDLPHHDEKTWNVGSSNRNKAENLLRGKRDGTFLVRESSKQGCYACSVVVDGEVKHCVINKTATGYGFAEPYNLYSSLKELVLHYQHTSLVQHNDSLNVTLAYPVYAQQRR
# protocolDetails: ADP-Glo kinase assay, inhibition of PI3Kδ enzyme
# Assay type: biochemical
assayEndpoint: IC50 (nM)
Just the number please, in nM, no unit attached.

Sample answers from the record:
chemicalStructure | IC50 [nM]
Cc1cccc2c1S(=O)(=O)Cc1c(C(=O)N3CCOC4(CC4)C3)nn(-c3ccc(CN4CCOCC4)cc3)c1-2 | 68
O=C(c1nn(-c2ccc(CN3CCOCC3)cc2)c2c1CS(=O)(=O)c1cc(Cl)ccc1-2)N1CCOC2(CC2)C1 | 26.5
COc1cccc2c1S(=O)(=O)Cc1c(C(=O)N3CCOC4(CC4)C3)nn(-c3ccc(CN4CCOCC4)cc3)c1-2 | 19
O=C(c1nn(-c2ccc(CN3CCOCC3)cc2)c2c1CS(=O)(=O)c1c(F)cccc1-2)N1CCOC2(CC2)C1 | 13
Cc1ccc2c(c1)S(=O)(=O)Cc1c(C(=O)N3CCOC4(CC4)C3)nn(-c3ccc(CN4CCOCC4)cc3)c1-2 | 25

Pending compound:
Please look up its IC50: "O=C(c1nn(-c2ccc(CN3CCOCC3)cc2)c2c1CS(=O)(=O)c1c-2ccc(Cl)c1F)N1CCOC2(CC2)C1" 10.5
